biological target: 3',5'-cyclic-AMP phosphodiesterase 4B (Homo sapiens, UniProt Q07343); test: Inhibition of human recombinant PDE4B2 expressed in baculovirus expression system using cAMP as substrate incubated for 2 hrs by HTRF assay
Sequence (Q07343 whole entry): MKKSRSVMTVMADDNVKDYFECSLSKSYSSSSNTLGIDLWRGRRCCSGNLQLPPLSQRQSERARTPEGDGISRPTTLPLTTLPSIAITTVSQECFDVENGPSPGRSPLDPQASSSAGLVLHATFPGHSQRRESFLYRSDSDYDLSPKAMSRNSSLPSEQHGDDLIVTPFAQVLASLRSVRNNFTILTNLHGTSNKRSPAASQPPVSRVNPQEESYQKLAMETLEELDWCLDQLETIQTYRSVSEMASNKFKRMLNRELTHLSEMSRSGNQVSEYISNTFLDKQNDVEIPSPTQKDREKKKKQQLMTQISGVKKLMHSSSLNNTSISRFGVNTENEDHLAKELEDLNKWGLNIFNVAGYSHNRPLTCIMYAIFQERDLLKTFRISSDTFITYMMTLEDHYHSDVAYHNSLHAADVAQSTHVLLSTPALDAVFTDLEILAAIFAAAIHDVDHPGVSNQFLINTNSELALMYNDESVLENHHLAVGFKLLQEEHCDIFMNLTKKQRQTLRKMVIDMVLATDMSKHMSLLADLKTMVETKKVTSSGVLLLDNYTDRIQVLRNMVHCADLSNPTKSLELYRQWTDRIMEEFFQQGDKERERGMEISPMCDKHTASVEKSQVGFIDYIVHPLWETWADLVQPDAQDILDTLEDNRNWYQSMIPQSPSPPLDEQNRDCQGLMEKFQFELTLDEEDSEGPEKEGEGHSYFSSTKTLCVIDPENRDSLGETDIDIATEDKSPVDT
Just a reminder that ties go to n: only IC50 strictly below 1 nM counts as y.

CN(C)C(=O)c1cccc(S(=O)(=O)N2CCC[C@H]2C(=O)O[C@@H](Cc2c(Cl)c[n+]([O-])cc2Cl)c2ccc(OC(F)F)c(OCC3CC3)c2)c1 ... y

Query: Regarding COc1ccc([C@H](Cc2c(Cl)c[n+]([O-])cc2Cl)OC(=O)c2ccc(CNC(CO)(C(=O)O[C@H]3CN4CCC3CC4)c3ccccc3)s2)cc1OC (stereo in doubt; 3s) , kindly confirm whether its IC50 is beneath 1 nM.
Result: y

Query: is_below(IC50, 1 nM) for COc1ccc([C@H](Cc2c(Cl)c[n+]([O-])cc2Cl)OC(=O)c2ccc(CNC(C(=O)O[C@H]3CN4CCC3CC4)c3ccccc3)cc2)cc1OC (stereo partly specified) ?
Result: n

Query: For this molecule, is IC50 lower than 1 nM? CCOc1cc([C@H](Cc2c(Cl)cncc2Cl)OC(=O)c2ccc(CN[C@@](CO)(C(=O)O[C@H]3CN4CCC3CC4)c3ccccc3)s2)ccc1OC
Result: n

Query: Hello, I'm reviewing records and need to know if IC50 of COc1ccc([C@H](Cc2c(Cl)c[n+]([O-])cc2Cl)OC(=O)c2ccc(CNC(CO)(C(=O)O[C@H]3CN4CCC3CC4)c3ccccc3)s2)cc1OCC1CC1 (stereo in doubt; 11f) is below 1 nM. Could you check?
Result: y
